The following compounds are listed with their measured refractive index values.
Experimental Details: refractive index (Na D-line) (dimensionless)
Stated Conditions: 343.15 K; 101.33 kPa; Liquid; Standard Abbe refractometry
// print number alone

Examples with answers:
CC[n+]1ccccc1C.O=S(=O)([N-]S(=O)(=O)C(F)(F)F)C(F)(F)F: 1.43454
CC[n+]1ccccc1.O=S(=O)([N-]S(=O)(=O)C(F)(F)F)C(F)(F)F [1-ethylpyridinium bis[(trifluoromethyl)sulfonyl]imide]: 1.42762
CC[n+]1cccc(C)c1.O=S(=O)([N-]S(=O)(=O)C(F)(F)F)C(F)(F)F: 1.43014

Query string: Check the records and state refractive index for "CC[n+]1ccc(C)cc1.O=S(=O)([N-]S(=O)(=O)C(F)(F)F)C(F)(F)F"
Result string: 1.43047

###

mass density listing for selected compounds.
Stated Conditions: 318.15 K; 101.33 kPa; Liquid; Vibrating tube method
Lab book: enter the figure in kg/m3, no units written.

# count of solved cases: 3
CC[n+]1ccccc1C.O=S(=O)([N-]S(=O)(=O)C(F)(F)F)C(F)(F)F: 1486.06
CC[n+]1ccc(C)cc1.O=S(=O)([N-]S(=O)(=O)C(F)(F)F)C(F)(F)F: 1467.15
CC[n+]1cccc(C)c1.O=S(=O)([N-]S(=O)(=O)C(F)(F)F)C(F)(F)F: 1469.26

Please find the next compound below.
Query string: Please give the documented mass density of CC[n+]1ccccc1.O=S(=O)([N-]S(=O)(=O)C(F)(F)F)C(F)(F)F [1-ethylpyridinium bis[(trifluoromethyl)sulfonyl]imide]
Result string: 1516.08

###

Stated Conditions: 343.15 K; 101.33 kPa; Liquid; Sing-around technique in a fixed-path interferometer
Measured speed of sound, listed per entry.
Please respond with the number in m/s and leave the unit unwritten.

CC[n+]1ccccc1.O=S(=O)([N-]S(=O)(=O)C(F)(F)F)C(F)(F)F [1-ethylpyridinium bis[(trifluoromethyl)sulfonyl]imide]: 1173.8
CC[n+]1cccc(C)c1.O=S(=O)([N-]S(=O)(=O)C(F)(F)F)C(F)(F)F: 1164.2
CC[n+]1ccc(C)cc1.O=S(=O)([N-]S(=O)(=O)C(F)(F)F)C(F)(F)F: 1166.1

Consider now this further compound.
Query string: Identify speed of sound associated with the compound "CC[n+]1ccccc1C.O=S(=O)([N-]S(=O)(=O)C(F)(F)F)C(F)(F)F"
Result string: 1202.7

###

A collection of compounds and their measured viscosity
Stated Conditions: 298.15 K; 101.33 kPa; Liquid; Falling or rolling sphere viscometry
Respond with the bare value in mPa·s.

CC[n+]1ccccc1C.O=S(=O)([N-]S(=O)(=O)C(F)(F)F)C(F)(F)F: 75.84

Query string: Output viscosity of "CC[n+]1ccc(C)cc1.O=S(=O)([N-]S(=O)(=O)C(F)(F)F)C(F)(F)F"
Result string: 32.83

Query string: Given the compound CC[n+]1ccccc1.O=S(=O)([N-]S(=O)(=O)C(F)(F)F)C(F)(F)F [1-ethylpyridinium bis[(trifluoromethyl)sulfonyl]imide] , write its reported viscosity.
Result string: 41.08

Query string: Provide only the value of recorded viscosity for "CC[n+]1cccc(C)c1.O=S(=O)([N-]S(=O)(=O)C(F)(F)F)C(F)(F)F"
Result string: 39.08

###

Experimental Details: refractive index (Na D-line) (dimensionless)
Stated Conditions: 333.15 K; 101.33 kPa; Liquid; Standard Abbe refractometry
Consider the following compounds and their measured refractive index readings.
Output: the number by itself.

Consider the following illustrative entries.
CC[n+]1ccccc1C.O=S(=O)([N-]S(=O)(=O)C(F)(F)F)C(F)(F)F: 1.43744
CC[n+]1cccc(C)c1.O=S(=O)([N-]S(=O)(=O)C(F)(F)F)C(F)(F)F: 1.43304
CC[n+]1ccc(C)cc1.O=S(=O)([N-]S(=O)(=O)C(F)(F)F)C(F)(F)F: 1.43344

Attention now turns to another entry.
Query string: Indicate the recorded refractive index value for this compound: CC[n+]1ccccc1.O=S(=O)([N-]S(=O)(=O)C(F)(F)F)C(F)(F)F [1-ethylpyridinium bis[(trifluoromethyl)sulfonyl]imide]
Result string: 1.43048

###

Stated Conditions: 308.15 K; 101.33 kPa; Liquid; Vibrating tube method
mass density for assorted molecules
Your answer should be a plain number; it is taken to be in kg/m3.

CC[n+]1ccccc1.O=S(=O)([N-]S(=O)(=O)C(F)(F)F)C(F)(F)F [1-ethylpyridinium bis[(trifluoromethyl)sulfonyl]imide]: 1525.92

Query string: Could you please provide reported mass density for "CC[n+]1ccccc1C.O=S(=O)([N-]S(=O)(=O)C(F)(F)F)C(F)(F)F" ? Thanks!
Result string: 1495.66

Query string: Please indicate mass density recorded for "CC[n+]1ccc(C)cc1.O=S(=O)([N-]S(=O)(=O)C(F)(F)F)C(F)(F)F"
Result string: 1476.87

Query string: # return recorded mass density for entry "CC[n+]1cccc(C)c1.O=S(=O)([N-]S(=O)(=O)C(F)(F)F)C(F)(F)F"
Result string: 1478.86

###

Examples of molecules with documented viscosity follow.
Stated Conditions: 303.15 K; 101.33 kPa; Liquid; Falling or rolling sphere viscometry
± gives the expanded uncertainty stated by the source.
Put down the number, then write its unit next to it.

CC[n+]1ccc(C)cc1.O=S(=O)([N-]S(=O)(=O)C(F)(F)F)C(F)(F)F: 27.39 ± 0.6 mPa·s

Query string: // Input: "CC[n+]1ccccc1C.O=S(=O)([N-]S(=O)(=O)C(F)(F)F)C(F)(F)F" . Output its viscosity only.
Result string: 60.69 ± 1.3 mPa·s

Query string: Give reported viscosity value for "CC[n+]1cccc(C)c1.O=S(=O)([N-]S(=O)(=O)C(F)(F)F)C(F)(F)F"
Result string: 32.33 ± 0.71 mPa·s

Query string: Input CC[n+]1ccccc1.O=S(=O)([N-]S(=O)(=O)C(F)(F)F)C(F)(F)F [1-ethylpyridinium bis[(trifluoromethyl)sulfonyl]imide] , output reported viscosity.
Result string: 34.17 ± 0.75 mPa·s

###

Recorded mass density by entry
Stated Conditions: 333.15 K; 101.33 kPa; Liquid; Vibrating tube method
Report only the number, with the unit kg/m3 understood.

CC[n+]1ccccc1C.O=S(=O)([N-]S(=O)(=O)C(F)(F)F)C(F)(F)F: 1471.81

Query string: Name the recorded mass density of the molecule listed here: CC[n+]1ccccc1.O=S(=O)([N-]S(=O)(=O)C(F)(F)F)C(F)(F)F [1-ethylpyridinium bis[(trifluoromethyl)sulfonyl]imide]
Result string: 1501.5

Query string: Supply recorded mass density for "CC[n+]1ccc(C)cc1.O=S(=O)([N-]S(=O)(=O)C(F)(F)F)C(F)(F)F" here.
Result string: 1452.73

Query string: Complete the entry with mass density for "CC[n+]1cccc(C)c1.O=S(=O)([N-]S(=O)(=O)C(F)(F)F)C(F)(F)F"
Result string: 1455.01

###

In this section, each of the molecules is paired with its reported viscosity.
Stated Conditions: 343.15 K; 101.33 kPa; Liquid; Falling or rolling sphere viscometry
± gives the expanded uncertainty stated by the source.
Form entry: enter the amount, then its unit.

Recorded results for 3 molecules are shown here.
CC[n+]1ccccc1C.O=S(=O)([N-]S(=O)(=O)C(F)(F)F)C(F)(F)F: 16.54 ± 0.36 mPa·s
CC[n+]1ccc(C)cc1.O=S(=O)([N-]S(=O)(=O)C(F)(F)F)C(F)(F)F: 9.51 ± 0.21 mPa·s
CC[n+]1cccc(C)c1.O=S(=O)([N-]S(=O)(=O)C(F)(F)F)C(F)(F)F: 10.67 ± 0.23 mPa·s

Moving on to the next molecule.
Query string: Supply measured viscosity of CC[n+]1ccccc1.O=S(=O)([N-]S(=O)(=O)C(F)(F)F)C(F)(F)F [1-ethylpyridinium bis[(trifluoromethyl)sulfonyl]imide] in your reply.
Result string: 11.48 ± 0.25 mPa·s

###

Stated Conditions: 293.15 K; 101.33 kPa; Liquid; Falling or rolling sphere viscometry
Parameter: viscosity. Scope: all listed entries.
Write it as a number; the unit mPa·s goes unstated.

Some solved entries appear below for comparison.
CC[n+]1cccc(C)c1.O=S(=O)([N-]S(=O)(=O)C(F)(F)F)C(F)(F)F: 47.85
CC[n+]1ccc(C)cc1.O=S(=O)([N-]S(=O)(=O)C(F)(F)F)C(F)(F)F: 40.01
CC[n+]1ccccc1C.O=S(=O)([N-]S(=O)(=O)C(F)(F)F)C(F)(F)F: 97.02

# next compound below
Query string: State, in one line, measured viscosity of CC[n+]1ccccc1.O=S(=O)([N-]S(=O)(=O)C(F)(F)F)C(F)(F)F [1-ethylpyridinium bis[(trifluoromethyl)sulfonyl]imide]
Result string: 50.27

###

Stated Conditions: 343.15 K; 101.33 kPa; Liquid; Vibrating tube method
Each entry below lists one item and its recorded mass density value.
# value in kg/m3; strip the unit string

Examples with their reported mass density follow.
CC[n+]1ccc(C)cc1.O=S(=O)([N-]S(=O)(=O)C(F)(F)F)C(F)(F)F: 1443.21
CC[n+]1cccc(C)c1.O=S(=O)([N-]S(=O)(=O)C(F)(F)F)C(F)(F)F: 1445.6
CC[n+]1ccccc1C.O=S(=O)([N-]S(=O)(=O)C(F)(F)F)C(F)(F)F: 1462.42

Okay, now this molecule:
Query string: In one line, give reported mass density of the entry CC[n+]1ccccc1.O=S(=O)([N-]S(=O)(=O)C(F)(F)F)C(F)(F)F [1-ethylpyridinium bis[(trifluoromethyl)sulfonyl]imide] .
Result string: 1491.87
